# RUN DESCRIPTION: Growth inhibition of human NCI-H146 cells after 4 days by WST8 assay
# Assay type: functional, cell-based
# RECORDED CONDITIONS: NCI-H146, 96 h
REPORTED ENDPOINT: IC50

MOLECULE	IC50
CN(C)CC[C@H](CSc1ccccc1)Nc1ccc(S(=O)(=O)Nc2ccccc2)cc1[N+](=O)[O-]	> 10 µM
CN(C)CC[C@H](CSc1ccccc1)Nc1ccc(S(=O)(=O)Nc2ccc(N3CCN(Cc4ccccc4-c4ccc(Cl)cc4)CC3)cc2)cc1[N+](=O)[O-]	> 10 µM
CN(C)CC[C@H](CSc1ccccc1)Nc1ccc(S(=O)(=O)NC(=O)c2ccc(N3CCN(Cc4ccccc4-c4ccc(Cl)cc4)CC3)cc2)cc1[N+](=O)[O-]	0.097 µM
CN(C)CC[C@H](CSc1ccccc1)Nc1ccc(S(=O)(=O)Nc2ccc(N3CCNCC3)cc2)cc1[N+](=O)[O-]	> 10 µM
CCOC(=O)c1c(-c2cccc(N3CCN(c4ccc(NS(=O)(=O)c5ccc(N[C@H](CCN(C)C)CSc6ccccc6)c([N+](=O)[O-])c5)cc4)CC3)c2)c(-c2ccc(Cl)cc2)cn1C	4.9 µM
CN(C)CC[C@H](CSc1ccccc1)Nc1ccc(S(N)(=O)=O)cc1[N+](=O)[O-]	> 10 µM
CN1CCN(CCCNC(=O)c2c(-c3ccccc3)c(-c3ccc(Cl)cc3)cn2CC[C@H](O)CO)CC1	> 10 µM
CN(C)CC[C@H](CSc1ccccc1)Nc1ccc(S(=O)(=O)Nc2ccc(N3CCN(c4cccc(-c5c(-c6ccc(Cl)cc6)cn(CC[C@H](O)CO)c5C(=O)NCCCN5CCN(C)CC5)c4)CC3)cc2)cc1[N+](=O)[O-]	2 µM

// for each molecule in input: emit IC50
1. CN(C)CC[C@H](CSc1ccccc1)Nc1ccc(S(=O)(=O)Nc2ccc(N3CCN(c4ccc(-c5c(-c6ccc(Cl)cc6)cn(CC[C@H](O)CO)c5C(=O)NCCCN5CCN(C)CC5)cc4)CC3)cc2)cc1[N+](=O)[O-]
2. CN(C)CC[C@H](CSc1ccccc1)Nc1ccc(S(=O)(=O)Nc2ccc(C#Cc3cccc(-c4c(-c5ccc(Cl)cc5)cn(CC[C@H](O)CO)c4C(=O)NCCCN4CCN(C)CC4)c3)cc2)cc1[N+](=O)[O-]
3. CN(C)CC[C@H](CSc1ccccc1)Nc1ccc(S(=O)(=O)NC(=O)c2ccc(C#Cc3cccc(-c4c(-c5ccc(Cl)cc5)cn(CC[C@H](O)CO)c4C(=O)NCCCN4CCN(C)CC4)c3)cc2)cc1[N+](=O)[O-]
4. CN(C)CC[C@H](CSc1ccccc1)Nc1ccc(S(=O)(=O)Nc2ccc(NCCNc3cccc(-c4c(-c5ccc(Cl)cc5)cn(CC[C@H](O)CO)c4C(=O)NCCCN4CCN(C)CC4)c3)cc2)cc1[N+](=O)[O-]

Response:
2.5 µM
> 10 µM
> 10 µM
> 10 µM

Please give IC50, item by item, for the list that follows.
1. CNC(=O)c1c(-c2cccc(N3CCN(c4ccc(NS(=O)(=O)c5ccc(N[C@H](CCN(C)C)CSc6ccccc6)c([N+](=O)[O-])c5)cc4)CC3)c2)c(-c2ccc(Cl)cc2)cn1C
2. CN(C)CC[C@H](CSc1ccccc1)Nc1ccc(S(=O)(=O)NC(=O)c2ccc(N3CCN(c4cccc(-c5c(-c6ccc(Cl)cc6)cn(CC[C@H](O)CO)c5C(=O)NCCCN5CCN(C)CC5)c4)CC3)cc2)cc1[N+](=O)[O-]
3. CN(C)CC[C@H](CSc1ccccc1)Nc1ccc(S(=O)(=O)Nc2ccc(N3CCN(c4cccc(-c5c(-c6ccc(Cl)cc6)cn(C)c5C(=O)NCCCN5CCN(C)CC5)c4)CC3)cc2)cc1[N+](=O)[O-]
4. CN(C)CC[C@H](CSc1ccccc1)Nc1ccc(S(=O)(=O)Nc2ccc(N3CCN(c4cccc(-c5c(-c6ccc(Cl)cc6)cn(C)c5C(=O)O)c4)CC3)cc2)cc1[N+](=O)[O-]
5. CN(C)CC[C@H](CSc1ccccc1)Nc1ccc(S(=O)(=O)Nc2ccc(N3CCN(c4cccc(-c5cn(C)cc5-c5ccc(Cl)cc5)c4)CC3)cc2)cc1[N+](=O)[O-]

Response:
["0.4 µM", "> 10 µM", "0.43 µM", "0.34 µM", "> 10 µM"]

Request: Which IC50 reading was recorded for the molecule `CN(C)CC[C@H](CSc1ccccc1)Nc1ccc(S(=O)(=O)Nc2ccc(-c3cn(-c4cccc(-c5c(-c6ccc(Cl)cc6)cn(CC[C@H](O)CO)c5C(=O)NCCCN5CCN(C)CC5)c4)nn3)cc2)cc1[N+](=O)[O-]` ?
Response: > 10 µM
